Data credit: ChEMBL document CHEMBL3822358

Recorded inhibition in vivo at 50 mg/kg by entry
- assay protocol: animal or person
- details: Homo sapiens, KARPAS-299, po, 312 h, read-out: TGI
- Description: Antitumor activity against human KARPAS299 cells expressing NMP-ALK fusion protein xenografted in SCID/beige mouse assessed as tumor growth inhibition at 50 mg/kg, po administered once daily for 13 days relative to untreated control
assay endpoint: inhibition in vivo at 50 mg/kg (%)

[[record]]
structure = "COc1cc(N2CCN(C)CC2)ccc1Nc1ncc(Cl)c(Nc2ccccc2P(C)(C)=O)n1"
assay_endpoint = "inhibition in vivo at 50 mg/kg"
unit_annotation = "%"
reading = 1.4

[[record]]
structure = "COc1cc(N2CCC(N3CCCC3)CC2)ccc1Nc1ncc(Cl)c(Nc2ccccc2P(C)(C)=O)n1"
assay_endpoint = "inhibition in vivo at 50 mg/kg"
unit_annotation = "%"
reading = 26

[[record]]
structure = "COc1cc(N2CCC(O)CC2)ccc1Nc1ncc(Cl)c(Nc2ccccc2P(C)(C)=O)n1"
assay_endpoint = "inhibition in vivo at 50 mg/kg"
unit_annotation = "%"
reading = 67

[[record]]
structure = "COc1cc(N2CCC(N3CCN(C)CC3)CC2)ccc1Nc1ncc(Cl)c(Nc2ccccc2P(C)(C)=O)n1"
assay_endpoint = "inhibition in vivo at 50 mg/kg"
unit_annotation = "%"
reading = -11


###

Recorded Activity by entry
- experimental target: ALK tyrosine kinase receptor (Homo sapiens)
- assay protocol: Inhibition of ALK phosphorylation in mouse xenografted with human KARPAS299 cells assessed as p-ALK level at 25 mg/kg, po administered as single dose measured after 24 hrs relative to 2 hrs vehicle-treated tumor
- Type: organism-based
- Set-up: scale not given: the % may be the effect or the level left
- details: KARPAS-299
- Sequence (Q9UM73 19-1620 limits assumed): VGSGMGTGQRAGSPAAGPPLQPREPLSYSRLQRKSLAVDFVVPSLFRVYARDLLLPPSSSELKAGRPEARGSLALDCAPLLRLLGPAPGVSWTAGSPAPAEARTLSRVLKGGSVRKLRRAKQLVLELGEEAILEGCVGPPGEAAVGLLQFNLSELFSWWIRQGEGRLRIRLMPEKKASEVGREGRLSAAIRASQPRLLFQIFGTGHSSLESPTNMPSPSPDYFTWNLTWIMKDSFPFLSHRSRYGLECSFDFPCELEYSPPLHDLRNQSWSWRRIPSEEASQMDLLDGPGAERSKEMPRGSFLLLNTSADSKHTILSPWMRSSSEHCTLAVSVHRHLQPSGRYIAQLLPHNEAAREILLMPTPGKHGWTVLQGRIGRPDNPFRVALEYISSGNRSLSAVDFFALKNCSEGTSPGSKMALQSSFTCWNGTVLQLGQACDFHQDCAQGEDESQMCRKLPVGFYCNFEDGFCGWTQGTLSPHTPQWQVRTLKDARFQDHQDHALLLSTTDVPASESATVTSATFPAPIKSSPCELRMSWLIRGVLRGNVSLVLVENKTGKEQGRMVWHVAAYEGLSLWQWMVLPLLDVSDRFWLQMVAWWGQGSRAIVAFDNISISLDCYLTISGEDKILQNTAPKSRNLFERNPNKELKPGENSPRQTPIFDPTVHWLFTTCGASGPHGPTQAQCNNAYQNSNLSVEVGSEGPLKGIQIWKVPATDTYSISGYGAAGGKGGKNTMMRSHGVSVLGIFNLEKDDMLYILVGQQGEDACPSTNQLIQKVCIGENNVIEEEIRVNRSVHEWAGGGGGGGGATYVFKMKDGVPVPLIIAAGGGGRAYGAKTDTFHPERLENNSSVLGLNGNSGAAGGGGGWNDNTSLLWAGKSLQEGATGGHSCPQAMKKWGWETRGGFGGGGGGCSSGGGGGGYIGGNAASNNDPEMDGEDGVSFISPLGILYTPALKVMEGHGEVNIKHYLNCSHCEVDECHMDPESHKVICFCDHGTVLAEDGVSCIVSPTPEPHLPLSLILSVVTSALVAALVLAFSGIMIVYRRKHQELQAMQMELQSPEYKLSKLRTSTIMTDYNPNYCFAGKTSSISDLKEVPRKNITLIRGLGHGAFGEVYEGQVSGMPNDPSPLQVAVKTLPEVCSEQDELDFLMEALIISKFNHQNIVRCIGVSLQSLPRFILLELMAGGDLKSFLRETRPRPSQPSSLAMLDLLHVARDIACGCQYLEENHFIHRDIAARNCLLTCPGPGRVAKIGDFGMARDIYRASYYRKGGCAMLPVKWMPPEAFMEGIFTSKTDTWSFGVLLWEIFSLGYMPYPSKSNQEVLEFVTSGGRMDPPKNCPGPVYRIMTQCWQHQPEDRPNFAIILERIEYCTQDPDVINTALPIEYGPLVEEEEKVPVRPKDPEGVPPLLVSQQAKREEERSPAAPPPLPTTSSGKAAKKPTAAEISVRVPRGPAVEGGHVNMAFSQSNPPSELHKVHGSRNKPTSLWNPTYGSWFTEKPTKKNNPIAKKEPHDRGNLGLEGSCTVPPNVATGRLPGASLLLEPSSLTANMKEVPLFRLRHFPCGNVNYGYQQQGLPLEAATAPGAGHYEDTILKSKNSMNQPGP
assay endpoint: Activity (%)

[[record]]
structure = "COc1cc(C2CCN(C)CC2)ccc1Nc1ncc(Cl)c(Nc2ccccc2P(C)(C)=O)n1"
experimental_target = "ALK tyrosine kinase receptor (Homo sapiens)"
reading = 118

[[record]]
structure = "COc1cc(N2CCC(CN3CCC3)CC2)ccc1Nc1ncc(Cl)c(Nc2ccccc2P(C)(C)=O)n1"
experimental_target = "ALK tyrosine kinase receptor (Homo sapiens)"
reading = 104

[[record]]
structure = "COc1cc(N2CCC(O)CC2)ccc1Nc1ncc(Cl)c(Nc2ccccc2P(C)(C)=O)n1"
experimental_target = "ALK tyrosine kinase receptor (Homo sapiens)"
reading = 168


###

- assay protocol: Half life in CD rat at 10 mg/kg, po by LC-MS/MS analysis
- Assay type: ADME, organism-based
- details: in vivo
assay endpoint: half-life (h)

[[record]]
structure = "COc1cc(OC2CCN(C)CC2)ccc1Nc1ncc(Cl)c(Nc2ccccc2P(C)(C)=O)n1"
unit_annotation = "h"
reading = 3.9

[[record]]
structure = "COc1cc(N2CCN(CCO)CC2)ccc1Nc1ncc(Cl)c(Nc2ccccc2P(C)(C)=O)n1"
unit_annotation = "h"
reading = 2.9

[[record]]
structure = "COc1cc(N2CCC(O)CC2)ccc1Nc1ncc(Cl)c(Nc2ccccc2P(C)(C)=O)n1"
unit_annotation = "h"
reading = 2.7


###

- experimental target: ALK tyrosine kinase receptor (Homo sapiens)
Recorded IC50 by entry
assay endpoint: IC50 (nM)

[[record]]
structure = "COc1cc(P(C)(C)=O)ccc1Nc1ncc(Cl)c(Nc2ccccc2S(C)(=O)=O)n1"
reading = 0.33

[[record]]
structure = "COc1cc(N2CCN(CCO)CC2)ccc1Nc1ncc(Cl)c(Nc2ccccc2P(C)(C)=O)n1"
reading = 0.18

[[record]]
structure = "COc1cc(N2CCC(N3CCN(C)CC3)CC2)ccc1Nc1ncc(Cl)c(Nc2ccccc2C(=O)N(C)C)n1"
reading = 4.77

[[record]]
structure = "COc1cc(N2CCC(N3CCN(C)CC3)CC2)ccc1Nc1ncc(Cl)c(Nc2ccccc2S(=O)(=O)N(C)C)n1"
reading = 0.75

[[record]]
structure = "COc1cc(P(C)(C)=O)ccc1Nc1ncc(Cl)c(Nc2ccccc2S(=O)(=O)C(C)C)n1"
reading = 0.31

[[record]]
structure = "COc1cc(N2CCC(N3CCN(C)CC3)CC2)ccc1Nc1ncc(C2CC2)c(Nc2ccccc2P(C)(C)=O)n1"
reading = 3.23

[[record]]
structure = "CCOc1cc(N2CCC(N3CCN(C)CC3)CC2)ccc1Nc1ncc(Cl)c(Nc2ccccc2P(C)(C)=O)n1"
reading = 0.75


###

- assay protocol: Oral bioavailability in CD rat at 10 mg/kg by LC-MS/MS analysis
- Assay type: ADME, organism-based
- details: in vivo
Recorded bioavailability by entry
assay endpoint: bioavailability

[[record]]
structure = "COc1cc(C2CCN(C)CC2)ccc1Nc1ncc(Cl)c(Nc2ccccc2P(C)(C)=O)n1"
assay_endpoint = "bioavailability"
reading = "110%"

[[record]]
structure = "COc1cc(OC2CCN(C)CC2)ccc1Nc1ncc(Cl)c(Nc2ccccc2P(C)(C)=O)n1"
assay_endpoint = "bioavailability"
reading = "55%"

[[record]]
structure = "COc1cc(N2CCN(C)CC2)ccc1Nc1ncc(Cl)c(Nc2ccccc2P(C)(C)=O)n1"
assay_endpoint = "bioavailability"
reading = "39%"


###

- assay protocol: Half life in mouse at 10 mg/kg, po by LC-MS/MS analysis
- Assay type: ADME, organism-based
- details: in vivo
assay endpoint: half-life (h)

[[record]]
compound = "COc1cc(OC2CCN(C)CC2)ccc1Nc1ncc(Cl)c(Nc2ccccc2P(C)(C)=O)n1"
reading = 1.6

[[record]]
compound = "COc1cc(N2CCC(N3CCCC3)CC2)ccc1Nc1ncc(Cl)c(Nc2ccccc2P(C)(C)=O)n1"
reading = 3.1

[[record]]
compound = "COc1cc(N2CCC(N3CCN(C)CC3)CC2)ccc1Nc1ncc(Cl)c(Nc2ccccc2P(C)(C)=O)n1 [BRIGATINIB]"
reading = 5.8

[[record]]
compound = "COc1cc(N2CCN(C)CC2)ccc1Nc1ncc(Cl)c(Nc2ccccc2P(C)(C)=O)n1"
reading = 2.7

[[record]]
compound = "COc1cc(C2CCN(C)CC2)ccc1Nc1ncc(Cl)c(Nc2ccccc2P(C)(C)=O)n1"
reading = 5


###

- assay protocol: AUC (0 to infinity) in CD rat at 10 mg/kg, po by LC-MS/MS analysis
- Type: ADME, organism-based
- Design: dose 10 mg/kg, route oral, time infinity
- details: in vivo
assay endpoint: AUC(0-inf) (ng·h/mL)

[[record]]
compound = "COc1cc(N2CCC(N3CCN(C)CC3)CC2)ccc1Nc1ncc(Cl)c(Nc2ccccc2P(C)(C)=O)n1 [BRIGATINIB]"
reading = 3950

[[record]]
compound = "COc1cc(N2CCN(C)CC2)ccc1Nc1ncc(Cl)c(Nc2ccccc2P(C)(C)=O)n1"
reading = 4060

[[record]]
compound = "COc1cc(OC2CCN(C)CC2)ccc1Nc1ncc(Cl)c(Nc2ccccc2P(C)(C)=O)n1"
reading = 9220

